target: UniProt:P51532; experiment: HiBiT assay for protein degradation, Hela SMARCA4-HiBiT cells (A series); assay type: cell-based; design: fuse HiBiT to the carboxy terminus of SMARCA2 (Promega CS302365) or SMARCA4 (Promega CS3023225); host or cells: HeLa (CRISPR/Cas9 HiBiT knock-in); conditions: Hela SMARCA4-HiBiT cells, 24 hours treatment; read-out: SMARC A4 Hela HiBit DC50
Sequence (P51532 whole entry): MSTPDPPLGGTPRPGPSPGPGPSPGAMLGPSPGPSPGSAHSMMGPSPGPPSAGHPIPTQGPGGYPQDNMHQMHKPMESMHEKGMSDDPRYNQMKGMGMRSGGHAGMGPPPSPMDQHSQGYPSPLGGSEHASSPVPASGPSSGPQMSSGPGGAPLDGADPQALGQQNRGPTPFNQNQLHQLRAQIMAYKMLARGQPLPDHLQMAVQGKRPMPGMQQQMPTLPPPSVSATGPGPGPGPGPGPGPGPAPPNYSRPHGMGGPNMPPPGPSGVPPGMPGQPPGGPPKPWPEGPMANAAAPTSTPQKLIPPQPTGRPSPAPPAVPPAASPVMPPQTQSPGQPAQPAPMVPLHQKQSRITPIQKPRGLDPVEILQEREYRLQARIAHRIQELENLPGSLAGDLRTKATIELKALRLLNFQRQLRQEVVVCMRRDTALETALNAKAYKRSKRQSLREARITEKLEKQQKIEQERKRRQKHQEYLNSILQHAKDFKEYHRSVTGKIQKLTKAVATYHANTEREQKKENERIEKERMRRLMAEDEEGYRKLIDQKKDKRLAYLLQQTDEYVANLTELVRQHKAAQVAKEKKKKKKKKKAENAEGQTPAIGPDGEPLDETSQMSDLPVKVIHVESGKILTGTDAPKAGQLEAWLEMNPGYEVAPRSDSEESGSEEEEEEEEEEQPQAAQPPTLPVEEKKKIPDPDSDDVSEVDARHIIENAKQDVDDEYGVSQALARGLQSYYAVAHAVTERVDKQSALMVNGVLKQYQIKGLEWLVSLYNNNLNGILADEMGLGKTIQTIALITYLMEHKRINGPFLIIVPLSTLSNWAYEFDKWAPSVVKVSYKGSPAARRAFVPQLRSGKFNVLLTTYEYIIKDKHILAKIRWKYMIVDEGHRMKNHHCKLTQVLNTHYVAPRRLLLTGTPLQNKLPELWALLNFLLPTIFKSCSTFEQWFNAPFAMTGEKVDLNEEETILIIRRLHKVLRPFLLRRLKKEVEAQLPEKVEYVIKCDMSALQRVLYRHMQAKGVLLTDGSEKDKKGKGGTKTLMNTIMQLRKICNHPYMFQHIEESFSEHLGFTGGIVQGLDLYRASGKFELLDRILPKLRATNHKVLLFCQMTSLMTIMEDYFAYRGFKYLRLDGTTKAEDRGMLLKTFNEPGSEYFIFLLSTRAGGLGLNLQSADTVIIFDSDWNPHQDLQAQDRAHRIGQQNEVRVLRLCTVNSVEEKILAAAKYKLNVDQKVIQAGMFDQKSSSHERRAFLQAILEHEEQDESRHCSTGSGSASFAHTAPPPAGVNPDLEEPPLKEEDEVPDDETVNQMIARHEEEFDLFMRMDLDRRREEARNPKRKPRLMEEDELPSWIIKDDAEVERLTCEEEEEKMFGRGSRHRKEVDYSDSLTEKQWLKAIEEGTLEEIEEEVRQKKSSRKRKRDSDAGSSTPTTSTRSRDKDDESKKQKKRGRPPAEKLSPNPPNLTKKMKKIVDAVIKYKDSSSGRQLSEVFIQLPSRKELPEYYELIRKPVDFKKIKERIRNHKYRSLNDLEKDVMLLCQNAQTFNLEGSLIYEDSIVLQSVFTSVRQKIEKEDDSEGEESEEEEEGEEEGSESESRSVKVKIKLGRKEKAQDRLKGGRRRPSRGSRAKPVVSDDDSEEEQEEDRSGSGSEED
Item-by-item account of DC50

- compound: "Cc1ncsc1-c1ccc([C@H](C)NC(=O)[C@@H]2C[C@@H](O)CN2C(=O)[C@@H](n2cc(CN3CCC(c4ccc5c(c4)-n4c(nc(=O)c6c(Br)cccc64)C54CCCCC4)CC3)nn2)C(C)(C)C)cc1 [Compound A43]"
  DC50: "< 100 nM"
- compound: "COCCOCCOCCOCCOC[C@H](NC(=O)[C@@H]1C[C@@H](O)CN1C(=O)[C@@H](n1cc([C@H]2CC[C@H](CN3CCC(c4ccc5c(c4)-n4c(nc(=O)c6c(Cl)cccc64)C5(C)C)CC3)CC2)nn1)C(C)(C)C)c1ccc(-c2scnc2C)cc1 [Compound A151]"
  DC50: "> 1000 nM"
- compound: "Cc1nc(C)c(-c2ccc([C@H](CN3CCOCC3)NC(=O)[C@@H]3C[C@@H](O)CN3C(=O)[C@@H](n3cc([C@H]4CC[C@H](CN5CCC(c6ccc7c(c6)-n6c(nc(=O)c8c(Cl)cccc86)C76CCCCC6)CC5)CC4)nn3)C(C)(C)C)cc2)s1 [Compound A161]"
  DC50: "100 to 1000 nM"
- compound: "Cc1ncsc1-c1ccc([C@H](CN2CCOCC2)NC(=O)[C@@H]2C[C@@H](O)CN2C(=O)[C@H](C2CCOCC2)n2cc([C@H]3CC[C@H](CN4CCC(c5ccc6c(c5)-n5c(nc(=O)c7c(Cl)cccc75)C6(C)C)CC4)CC3)nn2)cc1 [Compound A102]"
  DC50: "> 1000 nM"
- compound: "Cc1ncsc1-c1ccc([C@H](C)NC(=O)[C@@H]2C[C@@H](O)CN2C(=O)[C@@H](n2cc(CCCCN3CCC(c4ccc5c(c4)C4(CCCCC4)c4nc(=O)c6c(Br)cccc6n4-5)CC3)nn2)C(C)(C)C)cc1 [Compound A56]"
  DC50: "< 100 nM"
- compound: "Cc1ncsc1-c1ccc([C@H](CN2CCC(F)(F)CC2)NC(=O)[C@@H]2C[C@@H](O)CN2C(=O)[C@@H](n2cc([C@H]3CC[C@H](CN4CCC(c5ccc6c(c5)-n5c(nc(=O)c7c(Cl)cccc75)C65CCCCC5)CC4)CC3)nn2)C(C)(C)C)cc1 [Compound A75]"
  DC50: "> 1000 nM"
- compound: "Cc1ncsc1-c1ccc([C@H](CN2CCOCC2)NC(=O)[C@@H]2C[C@@H](O)CN2C(=O)[C@H](C2CCCCC2)n2cc([C@H]3CC[C@H](CN4CCC(c5ccc6c(c5)-n5c(nc(=O)c7c(Br)cccc75)C65CCCCC5)CC4)CC3)nn2)cc1 [Compound A123]"
  DC50: "10 to 100 nM"
- compound: "Cc1ncsc1-c1ccc([C@H](COCC(=O)O)NC(=O)[C@@H]2C[C@@H](O)CN2C(=O)[C@@H](n2cc([C@H]3CC[C@H](CN4CCC(c5ccc6c(c5)-n5c(nc(=O)c7c(Cl)cccc75)C65CCCCC5)CC4)CC3)nn2)C(C)(C)C)cc1 [Compound A155]"
  DC50: "> 1000 nM"
- compound: "Cc1ncsc1-c1ccc([C@H](CN2CCC(C(F)F)CC2)NC(=O)[C@@H]2C[C@@H](O)CN2C(=O)[C@@H](n2cc([C@H]3CC[C@H](CN4CCC(c5ccc6c(c5)-n5c(nc(=O)c7c(Cl)cccc75)C65CCCCC5)CC4)CC3)nn2)C(C)(C)C)cc1 [Compound A84]"
  DC50: "> 1000 nM"
- compound: "Cc1ncsc1-c1ccc([C@H](C)NC(=O)[C@@H]2C[C@@H](O)CN2C(=O)[C@@H](NC(=O)CCCCCN2CCC(c3ccc4c(c3)C3(CCCCC3)c3nc(=O)c5c(Cl)cccc5n3-4)CC2)C(C)(C)C)cc1 [Compound A9]"
  DC50: "501 to 1000 nM"
- compound: "Cc1ncsc1-c1ccc([C@H](C)NC(=O)[C@@H]2C[C@@H](O)CN2C(=O)[C@H](C2CCN(C)CC2)n2cc([C@H]3CC[C@H](CN4CCC(c5ccc6c(c5)-n5c(nc(=O)c7c(Cl)cccc75)C65CCCCC5)CC4)CC3)nn2)cc1 [Compound A110]"
  DC50: "> 1000 nM"
- compound: "COC(=O)C1CCN(C[C@H](NC(=O)[C@@H]2C[C@@H](O)CN2C(=O)[C@@H](n2cc([C@H]3CC[C@H](CN4CCC(c5ccc6c(c5)-n5c(nc(=O)c7c(Cl)cccc75)C65CCCCC5)CC4)CC3)nn2)C(C)(C)C)c2ccc(-c3scnc3C)cc2)CC1 [Compound A153]"
  DC50: "> 1000 nM"
- compound: "COCCOCCOCCOC[C@H](NC(=O)[C@@H]1C[C@@H](O)CN1C(=O)[C@@H](n1cc([C@H]2CC[C@H](CN3CCC(c4ccc5c(c4)-n4c(nc(=O)c6c(Cl)cccc64)C54CCCCC4)CC3)CC2)nn1)C(C)(C)C)c1ccc(-c2scnc2C)cc1 [Compound A148]"
  DC50: "> 1000 nM"
- compound: "Cc1ncsc1-c1ccc([C@H](C)NC(=O)[C@@H]2C[C@@H](O)CN2C(=O)[C@@H](n2cc(CCCCCCN3CCC(c4ccc5c(c4)C4(CCCCC4)c4nc(=O)c6c(Br)cccc6n4-5)CC3)nn2)C(C)(C)C)cc1 [Compound A58]"
  DC50: "< 100 nM"
- compound: "Cc1ncsc1-c1ccc([C@H](CCCCCN2CCC(c3ccc4c(c3)C3(CCCCC3)c3nc(=O)c5c(Br)cccc5n3-4)CC2)NC(=O)[C@H]2C[C@H](O)CN2C(=O)[C@@H](n2cc(C3CC3)nn2)C(C)(C)C)cc1 [Compound A35]"
  DC50: "< 100 nM"
- compound: "Cc1ncsc1-c1ccc([C@H](C)NC(=O)[C@@H]2C[C@@H](O)CN2C(=O)[C@@H](NC(=O)[C@H]2CC[C@H](CN3CCC(c4ccc5c(c4)C4(CCCCC4)c4nc(=O)c6c(Br)cccc6n4-5)CC3)CC2)C(C)(C)C)cc1 [Compound A14]"
  DC50: "100 to 500 nM"

Numbers sourced from patent US20260092071A1.
